# TARGET OR TEST SYSTEM: ATX in human whole blood (Homo sapiens (Human), UniProt Q13822)
# PROTOCOL TEXT: Assay B: Whole-Blood ATX assay
# EXPERIMENTAL CONTEXT: 1 h at 37° C., formation of 18:2 LPA
Recorded pIC50, one value per entry.
On this scale, pIC50 is minus log10 of a concentration expressed in M (mol/L).

Reference set (3 entries):
CC(=O)N(C)C1CCN(c2ccc(C3(Nc4ccc(OCc5ccc(C(F)F)nc5)nn4)CC3)cc2)CC1 [Example 1.4]    8.37
CC(=O)N1CCN(c2ccc(C3(Nc4ccc(OCc5ccc(C(F)(F)F)nc5)nn4)CC3)cc2C)CC1 [Example 1.13]    8.15
CC(=O)N1CCN(c2ccc([C@@H](CO)Nc3ccc(OCc4ccc(C(F)F)nc4)nn3)cc2)CC1 [Example 1.8]    8.89

Alright, here's another molecule for you.
Entry CC(=O)N1CCN(c2ccc(C3(Nc4ccc(OCc5ccc(C(F)(F)F)nc5)nn4)CC3)cn2)CC1 [Example 1.11] , pIC50 reported as 8.16
